B1: glmS ribozyme (parent)
chain: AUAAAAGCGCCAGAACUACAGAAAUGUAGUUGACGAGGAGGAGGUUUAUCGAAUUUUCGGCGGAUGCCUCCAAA

variants of: B1; assay: self-cleavage kobs at 2500 uM GlcN6P; higher = faster cleavage; RNA array; conditions: with glucosamine-6-phosphate
This sample holds only a part of the variants without activity.
VALUE_TYPE: self-cleavage kobs at 2500 uM GlcN6P

Recorded results for 5 variants are shown here.
[
  {
    "SEQUENCE_CONTENT": "AUAAAAGCGCCAGAACUACAGAAAUGUAGUUGACUACGAGGAGGCUUAUCGAAUUUUCGGCGGAUGCCUCCAAA",
    "self-cleavage kobs at 2500 uM GlcN6P": "< 1e-05 s⁻¹"
  },
  {
    "SEQUENCE_CONTENT": "AUAAAAGCGCCAGAACUACAGAAAUGUAGUUGACGAGGAUGAGGUUUAUCAAAUUUUCGGCGGAUGCCUCCAAA",
    "self-cleavage kobs at 2500 uM GlcN6P": "< 1e-05 s⁻¹"
  },
  {
    "SEQUENCE_CONTENT": "AUAAAAUCGCCAGAACUACAGAAAUGUAGUUGACGUGGACGAGGUUUAUCGAAUUUUCGGCGGAUGCCUCCAAA",
    "self-cleavage kobs at 2500 uM GlcN6P": "< 1e-05 s⁻¹"
  },
  {
    "SEQUENCE_CONTENT": "AUAAAAGCGCCAGAACUACAGAAAUGUAGUUGACGAGGAGGAGGUUUACCGAAUCUUCGGCGGAUGCCUCCAAA",
    "self-cleavage kobs at 2500 uM GlcN6P": "< 1e-05 s⁻¹"
  },
  {
    "SEQUENCE_CONTENT": "AUAAAAGCGUCAGAACUACAGAAAUGUAGUUGUCGAGGACGAGGUUUAUUGAAUUUUCGGCGGAUGCCUCCAAA",
    "self-cleavage kobs at 2500 uM GlcN6P": "< 1e-05 s⁻¹"
  }
]

Please supply self-cleavage kobs at 2500 uM GlcN6P for each of the following items, keeping them in order.
1. AUAAAAGCGCAAGAACUACAGAAAUGUAGUUGACGAGGAGGAGGUUUAUCGAAUUUUCGGCGGAUGUCUCGAAA
2. AUAAAAGCGCCACAACUACAGAAAUGUAGUUGACGAUGAGGAGGUUUAUCGAAUUUUUGACGGAUGCCUCCAAA
3. AUAAAAGCGCCAGAACUACAGAAAUGUAGUUGACGAGGAGGAGGUUUAUCGCAUUUCCGGCGGAUUCCUCCAAA
4. AUAAAAUCGCCAGCACUACAGAAAUGUAGUUGACGAGGAGGAGGUUUAUCGAAUUUUCGGCGGAUUCCUCCAAA
5. AUAAAAGCGCCAGAACUACAGAAAUGUAGUUGACGAUGAAGAGGUUUAUCGAAUUUUCUGCGGAUGCCUCCAAA
6. AUAAAAGCGCCAGAACUACAGAAAUGUAGUUUACGAGGAGGAGGUUUAUCGAAUUUUCGGCGGAUGCCUCUAAA
7. AUAAAAGCGCCAGAACUACAGAAAUGUAGCUGACAAGGAGGAGGUUUAUCGAAUUUUCGGCGGAUGCCUCCAAA

["0.00108 s⁻¹", "< 1e-05 s⁻¹", "< 1e-05 s⁻¹", "< 1e-05 s⁻¹", "< 1e-05 s⁻¹", "0.00037 s⁻¹", "< 1e-05 s⁻¹"]

Please supply self-cleavage kobs at 2500 uM GlcN6P for each of the following items, keeping them in order.
1. AUAAAAGCGACAGAAUUACAGAAAUGUAGUUGACGAGGAGGAGGUUUUUCGAAUUUUCGGCGGAUGCCUCCAAA
2. AUAAAAGCGCCAGAAUUACAGAAAUGUAGUUGACGAGGAGGAGGUUCAUCGAAUUUUCGGCGGAUGCCUCCAAA
3. AUAAAGGCGCCAGAACUACAGAAAUGUAGUUGACGAGGAGGAGGUUUAUCGAAUUUUCAGCGGAUGACUCCAAA
4. AUAAAAGCGCCAGAACUACAGAAAUGUAGUUGACGUGGAGGAGAUUUAUCGAAUAUUCGGCGGAUGCCUCCAAA
5. AUAAAAGCGCCAGAAUUACAGAAAUGUAGUUGACGAGGAGGAGGUUUAUCGAAUUUUCGGCGGAUGUCUCCAAA
6. AUAAAAGCGCCAGAACUACAGAAAUGUAGUUGACGAGGAGGAGGUUUAUCGAAUCUUCGGCGGAUGCCUCAAAA
7. AUAAAAGCGCCAGAACUACAGAAAUGUAGUUGGCGAGGAGGAGGUUCAUCGAAUUUUCGGGGGAUGCCUCCAAA

1. < 1e-05 s⁻¹
2. 0.00165 s⁻¹
3. < 1e-05 s⁻¹
4. < 1e-05 s⁻¹
5. 0.00294 s⁻¹
6. 0.000174 s⁻¹
7. < 1e-05 s⁻¹

Please supply self-cleavage kobs at 2500 uM GlcN6P for each of the following items, keeping them in order.
1. AUAAAAGCGCCAGAUCUACAGAAAUGUAGUUCACGAGGAGGAGGUUUAUCGAAUUUUCGGCGGAUGCCUCCAAA
2. AUAAAAGCGCCAGAACUACAGAAAUGUAGUUGACGAGUAGGAGGUUUAUCGAAUUUUCCGCGGAUGCCUCCAAA

["6.49e-05 s⁻¹", "< 1e-05 s⁻¹"]

Please supply self-cleavage kobs at 2500 uM GlcN6P for each of the following items, keeping them in order.
1. AUAAAAGCGCCAGCACUACAGAAAUGUAGUUGCCGAGGAGGAGGUUUAACGAAUUUUCGGCGGAUCCCUCCAAA
2. AUAAAGGCGCCGGAACUACAGAAAUGUAGUAGACGAGGAGGAGGUUUAUCGAAAUUUCGGCGGAUGCCUCAAAA

1. < 1e-05 s⁻¹
2. < 1e-05 s⁻¹

Please supply self-cleavage kobs at 2500 uM GlcN6P for each of the following items, keeping them in order.
1. AUAAAAGCGCCAGAACUACAGAAAUGUAGUUGACGAGGAGGAGGUUUAUCGAUUUUUCGGCGGAUGCCUGCAAA
2. AUAAAAGCGCCAGGACUACAGAAAUGUAGUUGACGAGGCGGAGGUUUAUCGAAUUUUCGGCGGAUGCCUCCAAA
3. AUAAAAGCACCAGAACUACAGAAAUGUAGUUGACGAGGAGGAGGUUUAUUGAAUUUUCGGCGGAUGCCUCCAAA
4. AUAAAAGCGCCAGUACUACAGAAAUGUAGUUGACGAGGAGGAGAUUUAUCGAAUUUUCGGCGGAUGCCUCCAAA
5. AUAAAAGCGCCAGAACUACAGAAAUGUAGUUGACGAGGAUGAGGUUUAUCGAAUUUUCGGCGGAUGUCUCCAAA
6. AUAAAUGCGCCAGAACUACAGAAAUGUAGUUGACGAGGAGCAGGUUUAUCGAAUUUUCGGCGGAUGCCUCCAAA
7. AUAAAAGCGCCAGAACUACAGAAAUGUAGAUGACGAGGAUGAGGUUUAUCGAAUUUUCGCAGGAUGCCUCCAAA

0.000136 s⁻¹
0.00921 s⁻¹
< 1e-05 s⁻¹
3.21e-05 s⁻¹
4.31e-05 s⁻¹
< 1e-05 s⁻¹
< 1e-05 s⁻¹

Please supply self-cleavage kobs at 2500 uM GlcN6P for each of the following items, keeping them in order.
1. AUAAAAGCGCUAGAACUACAGAAAUGUAGUUGACGAGGAGGAGGUUUAUCGAAUUUUCGGCGGAGGCUUCCAAA
2. AUAAAAGCGCCAGAACUACAGAAAUGUAGUUGACGAGGAGGAGGUAUAUCGCAUUUUCGGUGGAUGCCUCCAAA
3. AUAAAAGUGCCAGAACUACAGAAAUGUAGUUGACGAGGAGGAGGUUUACCGAAUUUUCGGCGGAUGCCUCCAAA
4. AUAAAAGGGCGAGAACUACAGAAAUGUAGUUGACGAGGAGGAGGUUUAUCGAAAUUUCGGCGGAUGCCUCCAAA
5. AUAAAAGCGCCAGAAUUACAGAAAUGUAGUUGACGAGGAGGAUGUUUAUCGAAUUUUCGGCGGAUGCCUCCAAA

0.000106 s⁻¹
< 1e-05 s⁻¹
< 1e-05 s⁻¹
< 1e-05 s⁻¹
2.81e-05 s⁻¹

Just for reference, the supplement of paper PMC7125110 is where these values come from.
